Test system: human platelet
protocol-details: Human platelet aggregation inhibiting activity
Assay type: cell-based
reported-conditions: 5 min, human plasma, adenosine 2-phosphate induced, 5 minutes at 37° C.
Experimental: Wistar rats (males, approximately 400 g) were made to fast for one day, the entire blood was removed from the chest artery under anesthesia by ether, then a 1/10 volume of 3.8% aqueous solution of sodium citrate was added and immediately mixed in. The solution was centrifuged at 1000 rpm for 10 minutes, then the upper layer was used as the platelet rich plasma. The lower layer was centrifuged at 3000 rpm for 10 minutes and the upper layer of that was used as the platelet poor plasma. […]
Recorded pIC50 values for a group of compounds are listed next.
Note on units: pIC50 is unitless, being -log10 of a concentration expressed in mol/L.

# compound CCCC(=O)OC1=C(SCCCCCC(=O)OC)[C@@H](/C=C/C(O)[C@H](C)c2ccccc2)[C@H](O)C1 (stereo partly drawn) [drawing 185] ; its pIC50 = 7.31

Value of pIC50 reported for the compound CCCC(=O)OC1=C(SCCCCCC(=O)OC)[C@@H](/C=C/C(O)C(C)c2ccccc2)[C@H](O)C1 (stereo partly drawn) [drawing 186] is 6.98

CCCCC(C)C[C@H](O)/C=C/[C@@H]1C(SCCCOCC(=O)OC)=C(OC(=O)CCC)C[C@H]1O (stereo partly drawn) [drawing 187] has a reported pIC50 of 7.23

Continuing:
Measured pIC50 of CCCC(=O)OC1=C(SCCCCCC(=O)OC)[C@@H](/C=C/C(O)Cc2ccccc2)[C@H](O)C1 (stereo partly drawn) [drawing 184] : 7.30

Documented pIC50 of CCCCC(C)C[C@H](O)/C=C/[C@@H]1C(SCCCCCC(=O)OC)=C(OC(=O)CCC)C[C@H]1O (stereo partly drawn) [drawing 183] : 7.24

Briefly, pIC50 measured for CCCC(=O)OC1=C(SCCCCCC(=O)OC)[C@@H](/C=C/[C@@H](O)C2CCCCC2)[C@H](O)C1 [drawing 182] : 6.92

###

// values below are reported pIC50
System: cell migration induced by MCP-1 in human promonocytic leukemia cell line, THP-1
protocol-details: Activity for inhibiting cell migration induced by MCP-1 (THP-1 cells)
Type: cell-based
reported-conditions: 20 ng/ml recombinant human MCP-1, 37° C., two hours
For clarity, pIC50 is expressed as the negative log10 of concentration in mol/L.

Observe how each entry below is paired with its result.
Bench note, cell migration induced by MCP-1 in human promonocytic leukemia cell line, THP-1: CCCC(=O)OC1=C(SCCCCCC(=O)OC)[C@@H](/C=C/C(O)CCCc2ccccc2)[C@H](O)C1 (stereo partly drawn) [drawing 146] , pIC50 reads 6.52

Here CCCC(=O)OC1=C(SCCCCCC(=O)OC)[C@@H](/C=C/C(O)Cc2ccc([N+](=O)[O-])cc2)[C@H](O)C1 (stereo partly drawn) [drawing 164] was tested on cell migration induced by MCP-1 in human promonocytic leukemia cell line, THP-1, and its pIC50 came to 8.44

Measured on cell migration induced by MCP-1 in human promonocytic leukemia cell line, THP-1, CCCC(=O)OC1=C(SCCCCCC(=O)OC)[C@@H](/C=C/C(O)Cc2cccc(C(=O)OC)c2)[C@H](O)C1 (stereo partly drawn) [drawing 159] has a documented pIC50 of 6.64

Value sought: pIC50, system cell migration induced by MCP-1 in human promonocytic leukemia cell line, THP-1, item CCCC(=O)OC1=C(SCCCCCC(=O)OC)[C@@H](/C=C/C(O)Cc2ccccc2C)[C@H](O)C1 (stereo partly drawn) [drawing 161] . Result: 6.72

New cases:
cell migration induced by MCP-1 in human promonocytic leukemia cell line, THP-1 data for CCCC(=O)OC1=C(SCCCCCC(=O)OC)[C@@H](/C=C/C(O)Cc2cccc(C(=O)OC)c2)[C@H](O)C1 (stereo partly drawn) [drawing 160] ; its pIC50: 8.64

Value (pIC50, cell migration induced by MCP-1 in human promonocytic leukemia cell line, THP-1) for record CCCC(=O)OC1=C(SCCCCCC(=O)OC)[C@@H](/C=C/C(O)C(C)(C)c2ccccc2)[C@H](O)C1 (stereo partly drawn) [drawing 136] = 7.89
